The values you see were collected from patent US20230295293A1.

subject-of-test: Cyno FRα ECD-Avi-His (cynomolgus monkey)
Sequence (chain, as listed by the source limits assumed): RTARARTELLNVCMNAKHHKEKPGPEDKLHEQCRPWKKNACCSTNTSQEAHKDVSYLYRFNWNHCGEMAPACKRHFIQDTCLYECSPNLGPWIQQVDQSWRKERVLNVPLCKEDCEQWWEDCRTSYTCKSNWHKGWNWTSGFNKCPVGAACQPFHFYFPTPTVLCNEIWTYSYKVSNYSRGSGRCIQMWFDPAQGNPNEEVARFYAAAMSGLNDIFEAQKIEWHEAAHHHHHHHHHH
test-details: HTRF antigen binding assay; hybridoma supernatant at 25%, 1 nM biotinylated antigen
readout: % Delta F (% Delta F)
Give bare numbers, in % Delta F.

Some solved entries appear below for comparison.
{"binder": "AB1370026 (hybridoma IgG) (antibody, V domains shown) VH: EVQLVESGGGLVKPGGSLRLSCAASGFTFSSYAMSWVRQAPGKGLEWVSSISSGRSYIYYADSVKGRFTISRDNAKNSLYLKMNSLRDEDTAVYYCAREMQQLALDYWGQGTLVTVSS VL: DIQMTQSPSSLSASVGDRVTITCRASQGISNFLAWFQQAPGKAPKSLIYAASSLQSGVPSKFSGSGSGTDFTLTISSLQPEDFATYYCQQYNSYPFTFGQGTKLEIK", "% Delta F [% Delta F]": 214}
{"binder": "AB1370083 (hybridoma IgG) (antibody, V domains shown) VH: EVQLVESGGGLVKPGGSLRLSCAASGFTFSSYNMNWVRQAPGKGLEWVSSISSGSSYIYYADSMKGRFTISRDNAKNSLFLQMNSLRAEDTAVYYCARGMTTLTFDYWGQGTLVTVSS VL: DIQMTQSPSSLSASVGDRVTITCRASQGISTFLAWFQQKPGKAPKSLIYAASSLQSGVPSKFSGSGSETDFTLTISSLQPEDFATYYCQQYISYPLTFGGGTKVEIK", "% Delta F [% Delta F]": 85.2}
{"binder": "AB1370035 (hybridoma IgG) (antibody, V domains shown) VH: QVQLQQSGPGLVKPSQTLSLTCAISGDSVSSNSAAWNWIRQSPSRGLEWLGRTYYRSNWYNDYTLSVKSRITVNPDTSKNQFSLQLNSVTPEDTAVYYCVRGVGRFDSWGQGTLVTVSS VL: DIQMTQSPSTLSASVGDRVIITCRASQSISSWLAWYQQKPGKAPKLLIYKASSLESGVPSRFSGSGSGTEFTLTITSLQPDDFASYYCQEYKTYSIFTFGPGTKVDIK", "% Delta F [% Delta F]": 141}

Query: Looking for the measured % Delta F of AB1370095 (hybridoma IgG) (antibody, V domains shown) VH: EVQLVESGGGLVKPGGSLRLSCAASGFTFSSYSMNWVRQAPGKGLEWVSSISSRSSYVYYADSVKGRFTISRDNAKNSLYLQMNSLRAEDTAVYYCARGMTTLTFDYWGQGTLVTVSS VL: DIQMTQSPSSLSASVGDRVTITCRASQGISSFLAWFQQKPGKAPKSLIYAASSLQSGVPSKFSGSGSGTDFTLTISSLQPEDFATYYCQQYNSYPLTFGGGTKVEIK , can you help?
Reply: 85.3
